B1: Hairpin Ribozyme (parent)
chain: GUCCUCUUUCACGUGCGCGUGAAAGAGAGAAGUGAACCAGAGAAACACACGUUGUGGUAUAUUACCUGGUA

Variants of: B1
Assay: self-cleavage, relative activity (ratio to wild type); higher = more cleavage; co-transcriptional
Decide using self-cleavage: a value greater than or equal to 0.2 is Criterion met, a smaller one is Criterion not met.

**Query** Is the recorded value of self-cleavage equal to or greater than 0.2 for this variant? A59U C66U
**Result** Criterion not met

**Query** Is the recorded value of self-cleavage equal to or greater than 0.2 for this variant? C6A A44C
**Result** Criterion not met

**Query** Is the recorded value of self-cleavage equal to or greater than 0.2 for this variant? U52C U63G
**Result** Criterion met

**Query** Is the recorded value of self-cleavage equal to or greater than 0.2 for this variant? A59C C66G
**Result** Criterion met

**Query** Is the recorded value of self-cleavage equal to or greater than 0.2 for this variant? A44C G68C
**Result** Criterion not met

**Query** Is the recorded value of self-cleavage equal to or greater than 0.2 for this variant? A24C U52G
**Result** Criterion met

**Query** Is the recorded value of self-cleavage equal to or greater than 0.2 for this variant? G21U A30C
**Result** Criterion met

**Query** Is the recorded value of self-cleavage equal to or greater than 0.2 for this variant? U9G U53A
**Result** Criterion met

**Query** Is the recorded value of self-cleavage equal to or greater than 0.2 for this variant? G34U C37A
**Result** Criterion met

**Query** Is the recorded value of self-cleavage equal to or greater than 0.2 for this variant? C3A G27A
**Result** Criterion met

**Query** Is the recorded value of self-cleavage equal to or greater than 0.2 for this variant? G13C G54C
**Result** Criterion not met

**Query** Is the recorded value of self-cleavage equal to or greater than 0.2 for this variant? A41U A59G
**Result** Criterion met

**Query** Is the recorded value of self-cleavage equal to or greater than 0.2 for this variant? G21U A31C
**Result** Criterion not met

**Query** Is the recorded value of self-cleavage equal to or greater than 0.2 for this variant? G21U C66U
**Result** Criterion met

**Query** Is the recorded value of self-cleavage equal to or greater than 0.2 for this variant? C3A G51C
**Result** Criterion met

**Query** Is the recorded value of self-cleavage equal to or greater than 0.2 for this variant? G32C G51A
**Result** Criterion not met

**Query** Is the recorded value of self-cleavage equal to or greater than 0.2 for this variant? C16G C48U
**Result** Criterion not met

**Query** Is the recorded value of self-cleavage equal to or greater than 0.2 for this variant? G56U A64U
**Result** Criterion not met

**Query** Is the recorded value of self-cleavage equal to or greater than 0.2 for this variant? G21U U33C
**Result** Criterion not met

**Query** Is the recorded value of self-cleavage equal to or greater than 0.2 for this variant? C48U U52C
**Result** Criterion not met

**Query** Is the recorded value of self-cleavage equal to or greater than 0.2 for this variant? A45U G69A
**Result** Criterion not met

**Query** Is the recorded value of self-cleavage equal to or greater than 0.2 for this variant? U20C U33C
**Result** Criterion not met

**Query** Is the recorded value of self-cleavage equal to or greater than 0.2 for this variant? U14G U55A
**Result** Criterion not met

**Query** Is the recorded value of self-cleavage equal to or greater than 0.2 for this variant? G27A U60G
**Result** Criterion met

**Query** Is the recorded value of self-cleavage equal to or greater than 0.2 for this variant? A59G U63G
**Result** Criterion not met

**Query** Is the recorded value of self-cleavage equal to or greater than 0.2 for this variant? C18U G68A
**Result** Criterion met

**Query** Is the recorded value of self-cleavage equal to or greater than 0.2 for this variant? U9C G19U
**Result** Criterion met

**Query** Is the recorded value of self-cleavage equal to or greater than 0.2 for this variant? G13U G19C
**Result** Criterion met

**Query** Is the recorded value of self-cleavage equal to or greater than 0.2 for this variant? U2G G42U
**Result** Criterion not met

**Query** Is the recorded value of self-cleavage equal to or greater than 0.2 for this variant? C3A G40U
**Result** Criterion not met

**Query** Is the recorded value of self-cleavage equal to or greater than 0.2 for this variant? U20C A23U
**Result** Criterion met

**Query** Is the recorded value of self-cleavage equal to or greater than 0.2 for this variant? G42C U70A
**Result** Criterion met

**Query** Is the recorded value of self-cleavage equal to or greater than 0.2 for this variant? U33G C65U
**Result** Criterion not met

**Query** Is the recorded value of self-cleavage equal to or greater than 0.2 for this variant? G15C A71U
**Result** Criterion met

**Query** Is the recorded value of self-cleavage equal to or greater than 0.2 for this variant? C38G A59U
**Result** Criterion not met

**Query** Is the recorded value of self-cleavage equal to or greater than 0.2 for this variant? G1C A26U
**Result** Criterion not met

**Query** Is the recorded value of self-cleavage equal to or greater than 0.2 for this variant? U33A G40A
**Result** Criterion not met

**Query** Is the recorded value of self-cleavage equal to or greater than 0.2 for this variant? U5C U52G
**Result** Criterion met

**Query** Is the recorded value of self-cleavage equal to or greater than 0.2 for this variant? G27C G54C
**Result** Criterion not met

**Query** Is the recorded value of self-cleavage equal to or greater than 0.2 for this variant? C6A C16U
**Result** Criterion met

**Query** Is the recorded value of self-cleavage equal to or greater than 0.2 for this variant? U14A U67G
**Result** Criterion met

**Query** Is the recorded value of self-cleavage equal to or greater than 0.2 for this variant? A22C A39C
**Result** Criterion met

**Query** Is the recorded value of self-cleavage equal to or greater than 0.2 for this variant? A36G G54U
**Result** Criterion met

**Query** Is the recorded value of self-cleavage equal to or greater than 0.2 for this variant? C10G A43U
**Result** Criterion not met

Data origin: the RNAGym collection of RNA variant scans (doi:10.7554/elife.80360)
